System: Trichophyton rubrum B68183
ASSAY PROTOCOL: Antifungal activity in vitro (resazurin susceptibility screen), Inf. C
Type: cell-based
DETAILS: Trichophyton rubrum B68183; 27 °C, 7 days, resa time 24 hours
Items are presented alongside their recorded Inf. C pIC50.
MEASURED PROPERTY: Inf. C pIC50

compound="CC(=O)c1ccc(C2NCc3c(ccc(Cl)c3Cl)-n3cccc32)cc1.Cl (stereo not drawn)" tgt="Trichophyton rubrum B68183" limit_operator== observed=5.7
compound="CC(=O)c1ccc(C2NCc3c(Cl)cc(Cl)cc3-n3cccc32)cc1.Cl (stereo not drawn)" tgt="Trichophyton rubrum B68183" limit_operator== observed=5.7
compound="Cl.OCCc1ccc(C2NCc3c(Cl)ccc(Cl)c3-n3cccc32)cc1 (stereo not drawn)" tgt="Trichophyton rubrum B68183" limit_operator== observed=5.1
compound="CC(O)c1ccc(C2NCc3c(ccc(Cl)c3Cl)-n3cccc32)cc1.Cl (stereo not drawn)" tgt="Trichophyton rubrum B68183" limit_operator=< observed=4.2
compound="CC(=O)c1cccc(C2NCc3c(Cl)cc(Cl)cc3-n3cccc32)c1.Cl (stereo not drawn)" tgt="Trichophyton rubrum B68183" limit_operator== observed=5.7
compound=CS(=O)(=O)c1cccc(C2=NCc3c(Cl)cccc3-n3cccc32)c1 tgt="Trichophyton rubrum B68183" limit_operator== observed=5.1
compound="Cl.OCCc1ccc(C2NCc3c(ccc(Cl)c3Cl)-n3cccc32)cc1 (stereo not drawn)" tgt="Trichophyton rubrum B68183" limit_operator== observed=4.5
compound="Br.CC(=O)c1ccc(C2NCc3c(Cl)cccc3-n3cccc32)cc1 (stereo not drawn)" tgt="Trichophyton rubrum B68183" limit_operator== observed=6.4
compound="CC(O)c1ccc(C2NCc3cc(Cl)cc(Cl)c3-n3cccc32)cc1.Cl (stereo not drawn)" tgt="Trichophyton rubrum B68183" limit_operator== observed=6

* * *

Test system: Cryptococcus neoformans B66663
ASSAY PROTOCOL: Antifungal activity in vitro (resazurin susceptibility screen), Inf. F
Assay type: cell-based
DETAILS: Cryptococcus neoformans, B66663, Cryptococcus neoformans B66663; 37 °C, 24 hours, resa time 4 hours; read-out: Inf. F pIC50 (converted)
Description: The standard susceptibility screen was performed in 96-well plates (U-bottom, Greiner Bio-One). […] These serial dilutions (10 n1) were then spotted onto test-plates that could be stored in the dark at 4° C. for a maximum period of 2 weeks. […] The different fungal species/isolates (Table 3a) were cryopreserved and 1/1000 diluted in medium just prior to use. A standard inoculum of 200 μl containing 10^3 colony-forming unit (cfu) was then added to each well. […]
MEASURED PROPERTY: IC50

compound=CC(=O)c1ccc(C2=NCc3c(Cl)cccc3-n3cccc32)cc1 observed="> 31.6 µM"
compound="CC(=O)c1ccc(C2NCc3ccc(Cl)cc3-n3cccc32)cc1 (stereo not shown)" observed="50.1 µM"
compound=CC(=O)c1ccc(C2=NCc3c(F)cccc3-n3cccc32)cc1 observed="> 63.1 µM"
compound=CS(=O)(=O)c1ccc(C2=NCc3c(Cl)cc(Cl)cc3-n3cccc32)cc1 observed="15.8 µM"
compound=CC(=O)c1cc(C2=NCc3c(Cl)cccc3-n3cccc32)ccc1F observed="> 63.1 µM"
compound="CC(=O)c1ccc(C2NCc3c(Cl)cccc3-n3cccc32)cc1.Cl (stereo not shown)" observed="25.1 µM"
compound=CS(=O)(=O)c1ccc(C2=NCc3c(F)cccc3-n3cccc32)cc1 observed="31.6 µM"
compound="CC(=O)c1ccc(C2NCc3cc(Cl)cc(Cl)c3-n3cccc32)cc1.Cl (stereo not shown)" observed="50.1 µM"
compound=CC(=O)c1cc(C2=NCc3c(Cl)cc(Cl)cc3-n3cccc32)ccc1F observed="> 63.1 µM"
compound=CS(=O)(=O)c1cccc(C2=NCc3c(Cl)cc(Cl)cc3-n3cccc32)c1 observed="> 63.1 µM"
compound=CC(=O)c1ccc(C2=NCc3c(Cl)ccc(Cl)c3-n3cccc32)cc1 observed="> 63.1 µM"
compound=CC(=O)c1ccc(C2=NCc3cc(Cl)cc(Cl)c3-n3cccc32)cc1 observed="10 µM"
compound="CC(=O)c1cc(C2NCc3c(Cl)cc(Cl)cc3-n3cccc32)ccc1F (stereo not shown)" observed="> 63.1 µM"
compound="CC(=O)c1cccc(C2NCc3c(Cl)cccc3-n3cccc32)c1 (stereo not shown)" observed="> 63.1 µM"
compound=CS(=O)(=O)c1ccc(C2=NCc3c(Cl)cccc3-n3cccc32)cc1 observed="> 63.1 µM"
compound=CC(=O)c1ccc(C2=NCc3cccc(Cl)c3-n3cccc32)cc1 observed="2 µM"
